- Tested on: L1210 leukemia ip in BDF1 mice, survival T/C
- experimentSummary: NCI In Vivo Anticancer Drug Screen. Data for tumor model L1210 Leukemia (intraperitoneal) in B6D2F1 (BDF1) mice
- testSettings: endpoint: mean survival time; dose: 100.0 mg/kg/injection; schedule: Q04DX003 (ip); vehicle: Klucel (hydroxypropylcellulose) (HPC); higher = longer survival
Inconclusive results and toxic doses are left out.
Recorded T/C by entry

Examples with their reported T/C follow.
# molecule, subjectOfTest, measuredValue
rows = [
    ("Clc1ccc(/C=C2\\c3cc(Cl)ccc3-c3c(Cl)cc(Cl)cc32)cc1", "L1210 leukemia ip in BDF1 mice, survival T/C", "86 % of control"),
    ("CC1c2cccc(Cl)c2C(=O)c2c(Cl)cccc21", "L1210 leukemia ip in BDF1 mice, survival T/C", "108 % of control"),
    ("CC(=O)N1C(=O)C(Cl)C(Cl)C(=O)N1C(C)=O (stereo not given)", "L1210 leukemia ip in BDF1 mice, survival T/C", "89 % of control"),
    ("CN(C)C(=O)Nc1cccc(OP(=O)(Oc2ccccc2)Oc2ccccc2)c1", "L1210 leukemia ip in BDF1 mice, survival T/C", "91 % of control"),
]

GET /values?readout=T/C&item= "Cc1cc(=O)[nH]c2ccc(-c3ccc4[nH]c(=O)cc(C)c4c3)cc12"
102 % of control

GET /values?readout=T/C&item= "O=C1c2ccccc2C(=O)N1N(c1ccccc1)c1ccccc1"
95 % of control

GET /values?readout=T/C&item= O=C(NC(CSC(=O)OCc1ccccc1)C(=O)Oc1ccc([N+](=O)[O-])cc1)OCc1ccccc1 (stereo not given)
97 % of control

GET /values?readout=T/C&item= "CCOC(=O)c1cc(C)n(-c2ccc(-c3ccc(-n4c(C)cc(C(=O)OCC)c4C)c(C)c3)cc2C)c1C"
98 % of control

GET /values?readout=T/C&item= "O=C(NNC(=O)c1ccc([N+](=O)[O-])cc1)c1ccccc1"
105 % of control

GET /values?readout=T/C&item= "[C](#Cc1ccccc1)[Hg][C]#Cc1ccccc1"
103 % of control

----------
- Tested on: L1210 leukemia ip in BDF1 mice, survival T/C
- experimentSummary: NCI In Vivo Anticancer Drug Screen. Data for tumor model L1210 Leukemia (intraperitoneal) in B6D2F1 (BDF1) mice
- testSettings: endpoint: mean survival time; dose: 100.0 mg/kg/injection; schedule: Q04DX003 (ip); vehicle: saline with Tween-80; higher = longer survival
Toxic doses and inconclusive results are not listed.
measuredParameter: T/C

# molecule, subjectOfTest, measuredValue
rows = [
    ("O=C(/C=C/C=C/c1ccccc1)c1ccccc1O", "L1210 leukemia ip in BDF1 mice, survival T/C", "94 % of control"),
    ("S=P(S)(c1ccccc1)c1ccccc1", "L1210 leukemia ip in BDF1 mice, survival T/C", "91 % of control"),
    ("CC(=O)N1CCOC12CCN(Cc1ccccc1)CC2", "L1210 leukemia ip in BDF1 mice, survival T/C", "100 % of control"),
    ("O=c1c2cccc3cccc(c32)c2nc3ccccc3n12", "L1210 leukemia ip in BDF1 mice, survival T/C", "104 % of control"),
    ("N#CCCC#N (tested in a mixture with another compound)", "L1210 leukemia ip in BDF1 mice, survival T/C", "96 % of control"),
    ("CCOC1OC(C(O)CO)C(O)C1O (stereo unspecified)", "L1210 leukemia ip in BDF1 mice, survival T/C", "98 % of control"),
    ("CCO/C(C)=C(/C(C)=O)C(=O)NC1CCCCC1", "L1210 leukemia ip in BDF1 mice, survival T/C", "101 % of control"),
    ("COc1ccc(Cc2c3cc(OC)c(OC)cc3cc[n+]2C)cc1OC", "L1210 leukemia ip in BDF1 mice, survival T/C", "98 % of control"),
]

Hello, I am looking for reported T/C with L1210 leukemia ip in BDF1 mice, survival T/C for CC(C)C1=CC2=CCC3C(C)(C#N)CCCC3(C)C2CC1CC#N (stereo unspecified) . Could you help?
88 % of control

Hello, I am looking for reported T/C with L1210 leukemia ip in BDF1 mice, survival T/C for "Cc1ccc(C)c(Cc2c(C=O)[nH]c(=S)[nH]c2=O)c1" . Could you help?
97 % of control

Hello, I am looking for reported T/C with L1210 leukemia ip in BDF1 mice, survival T/C for "CCCCOCN1COCC1(C)C" . Could you help?
108 % of control

Hello, I am looking for reported T/C with L1210 leukemia ip in BDF1 mice, survival T/C for "COc1ccc(COC(=O)Nc2cccc(Cl)c2C)cc1" . Could you help?
93 % of control

Hello, I am looking for reported T/C with L1210 leukemia ip in BDF1 mice, survival T/C for "CC(C)CSC(C)C" . Could you help?
107 % of control

Hello, I am looking for reported T/C with L1210 leukemia ip in BDF1 mice, survival T/C for "Cc1ccc(C2(C#N)CCCCC2)cc1" . Could you help?
108 % of control

Hello, I am looking for reported T/C with L1210 leukemia ip in BDF1 mice, survival T/C for "C[C@]12CC[C@H](OC(=O)Cc3ccc(N(CCCl)CCCl)cc3)CC1=CC[C@@H]1[C@@H]2CC[C@]2(C)C(=O)CC[C@@H]12" . Could you help?
88 % of control

Hello, I am looking for reported T/C with L1210 leukemia ip in BDF1 mice, survival T/C for "CCCCn1nnc2c(NCCc3cnc[nH]3)nc(N)nc21" . Could you help?
89 % of control

Hello, I am looking for reported T/C with L1210 leukemia ip in BDF1 mice, survival T/C for "O=C(O)c1ccc(N=Cc2ccc([N+](=O)[O-])s2)cc1" . Could you help?
102 % of control

Hello, I am looking for reported T/C with L1210 leukemia ip in BDF1 mice, survival T/C for CC(C)(OC(=O)C(NC=O)C(C)(C)S)OC(=O)C(NC=O)C(C)(C)S (stereo unspecified) . Could you help?
98 % of control

Entry source: PubChem BioAssay AID248
